Sourced from the supplement of paper PMC7877785

experiment: self-splicing fitness, log relative to wild type (ln ratio); higher = more splicing; Tetrahymena group I intron in knt gene, E. coli kanamycin selection, DiMSum; sequences stand for … in CUCUCU…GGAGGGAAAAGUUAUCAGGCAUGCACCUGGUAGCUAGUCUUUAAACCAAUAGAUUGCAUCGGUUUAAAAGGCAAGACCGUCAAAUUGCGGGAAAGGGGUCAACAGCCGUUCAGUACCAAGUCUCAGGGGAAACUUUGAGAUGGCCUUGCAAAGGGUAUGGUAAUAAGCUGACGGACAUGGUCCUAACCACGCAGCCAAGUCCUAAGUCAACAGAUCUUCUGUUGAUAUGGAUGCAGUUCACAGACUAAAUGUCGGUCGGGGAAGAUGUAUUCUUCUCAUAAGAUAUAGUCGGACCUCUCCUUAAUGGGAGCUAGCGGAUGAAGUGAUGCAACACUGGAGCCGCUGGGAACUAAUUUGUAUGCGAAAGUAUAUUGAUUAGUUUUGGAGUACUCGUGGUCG; details: 30 °C;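 further: selection with 25 µg/mL kanamycin versus none on LB agar overnight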
Label scheme for self-splicing fitness (ln): range A = under -3, range B = from -3 up to -2, range C = -2 and over

Ask: State the class of the sequence shown: `AUAAAGCAAUAUUACGUCGU`
Reply: range C

Ask: State the class of the sequence shown: `AUGAAGCAAUAUUACGUAGU`
Reply: range C

Ask: State the class of the sequence shown: `UCUAAGCAAUAUUACGCUUU`
Reply: range A

Ask: State the class of the sequence shown: `UUAAAGCAAUAUUACGUGUC`
Reply: range C
